biological target: Procathepsin L (Homo sapiens) (UniProt P07711)
Sequence (P07711 114-288 limits assumed): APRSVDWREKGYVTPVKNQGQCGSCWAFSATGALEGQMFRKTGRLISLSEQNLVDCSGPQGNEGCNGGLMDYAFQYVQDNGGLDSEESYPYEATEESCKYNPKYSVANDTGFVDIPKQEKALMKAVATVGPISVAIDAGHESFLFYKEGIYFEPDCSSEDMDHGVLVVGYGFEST
Sequence (P07711 292-333 limits assumed): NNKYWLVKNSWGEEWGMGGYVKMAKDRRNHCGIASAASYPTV
pIC50: −log10 of the molar value.

- smiles-notation: "CC(C)(C)OC(=O)N[C@@H](Cc1c[nH]c2ccccc12)C(=O)NNC(=O)OCC(=O)N1CCCc2ccccc21"
  test-target: "Procathepsin L (Homo sapiens) (UniProt P07711)"
  pIC50: 8.15
